target: A*02:07; assay: SPR; low fitting confidence
pKd: −log10 of the molar value.
ASSAY READOUT: pKd

# BINDER, ASSAY READOUT, READOUT VALUE
records = [
    ("AS179732 (Fc fusion) NFMLTQPPSMSGSPRQSVTISCTGSSSNIGGNYVNWYQHLPGTAPKLLIYDNSNRASGVPERFSGSKSGSSASLTITGLQAEDEGDYYCASWDDSLSGAVFGGGTHLTVLGGGGSGGGGSGGGGSEVQLVESGGGLVQPGGSLRLSCAASGFTFLNYAMSWVRQAPGKGLEWVSSNSGAGSTYYSDSVKGRFTISRDYAKNVVYLQLNSLKTEDTGMYYCAKGTNVGSWSSLHYWGQGTQVTVSS", "pKd", "< 6.11"),
]

Source: patent US20240279318A1
